- ASSAY_OVERVIEW: Chronic DIO Mouse: plasma and brain concentrations
- Type: in vivo
- COND: brain, oral, DIO mice, 30 mg/kg daily, 2 Hours Post Dose, Day 25, read-out: Brain Concentration (Std Dev)
- Procedure: DIO mice received vehicle, test compound (@ 1, 3, 10, and 30 mg/kg) daily for 26 days. At the end of the experiment, the mice were euthanized and blood and tissues were collected.
READOUT_KIND: concentration at 2 h (ng/g)
Answers are plain numbers, in ng/g.

Report concentration at 2 h for O=C(O)c1cccc(CN2CCC(n3c(C4CC4)nc4ccc(C(c5ccc(Cl)cc5)c5ccc(Cl)cc5)cc43)CC2)c1 [Example 148] please.
73.5

====

- TESTED_ON: Human CB1R (Cannabinoid receptor 1) (Homo sapiens, UniProt P21554)
- Sequence (P21554 whole entry): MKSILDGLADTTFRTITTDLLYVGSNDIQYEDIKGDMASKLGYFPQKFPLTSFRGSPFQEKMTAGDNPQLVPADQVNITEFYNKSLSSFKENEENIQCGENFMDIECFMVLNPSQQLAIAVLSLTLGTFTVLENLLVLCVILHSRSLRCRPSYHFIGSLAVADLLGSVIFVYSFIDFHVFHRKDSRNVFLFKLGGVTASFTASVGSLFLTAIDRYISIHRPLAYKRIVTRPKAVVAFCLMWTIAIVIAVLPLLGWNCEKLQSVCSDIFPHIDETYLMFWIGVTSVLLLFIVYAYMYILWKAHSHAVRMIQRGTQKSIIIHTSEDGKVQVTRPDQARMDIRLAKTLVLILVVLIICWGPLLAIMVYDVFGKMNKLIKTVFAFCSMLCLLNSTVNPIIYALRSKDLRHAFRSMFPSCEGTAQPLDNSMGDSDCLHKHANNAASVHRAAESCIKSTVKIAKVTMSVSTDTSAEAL
- ASSAY_OVERVIEW: CB-1 in vitro cAMP (HTRF) assay
- Assay type: cell-based
- COND: HEK cells, cAMP HTRF, 250 nM forskolin; mean where tested more than once; read-out: CB1 HEK_cAMP EC50
Give pEC50 for every item shown.
One number for each entry, as −log10 of the molar value.

A selection of reference data follows.
Report pEC50 for Clc1ccc(C(c2ccc3nc(C4CNC4)n(CCc4cccc(Cl)c4)c3c2)c2nccs2)cc1 (stereo not shown) [Example 404] please.
5.21

Report pEC50 for O=S(=O)(N1CCC(O)(Cn2c(C3CC3)nc3ccc(C(c4ccc(Cl)cc4)c4ccc(Cl)cc4)cc32)CC1)C(F)(F)F [Example 295] please.
8.30

Report pEC50 for COc1ccc(S(=O)(=O)N2CCC(n3c(C4CC4)nc4ccc(C(c5ccc(Cl)cc5)c5ccc(Cl)cc5)cc43)CC2)cc1 [Example 281] please.
7.90

Report pEC50 for NC(=O)[C@H]1CC[C@H](n2c(C3CC3)nc3ccc(C(c4ccc(Cl)cc4)c4ccc(Cl)cc4)cc32)CC1 [Example 135] please.
7.27

Report pEC50 for O=C(Nc1ccccc1)N1CCC(n2c(C3CC3)nc3ccc(C(c4ccc(Cl)cc4)c4ccc(Cl)cc4)cc32)CC1 [Example 50] please.
7.32

Others:
Report pEC50 for O=C(O)c1cc(CN2CCC(n3c(C4CC4)nc4ccc(C(c5ccc(Cl)cc5)c5ccc(Cl)cc5)cc43)CC2)ccc1F [Example 95] please.
7.95

====

Give concentration at 1 h for every item shown.
- ASSAY_OVERVIEW: Mouse Fast PK/BBB: plasma and brain concentration
- Type: in vivo, Male C57bl/6j mice
- COND: male, C57bl/6j, mouse, brain, mice, dose 30 mg/kg oral, read-out: Brain Mean Conc. ± Std. Dev
Numbers only, in µg/mL.

Report concentration at 1 h for O=C(O)c1ccc(F)c(CN2CCC(n3c(C4CC4)nc4ccc(C(c5ccc(Cl)cc5)c5ccc(Cl)cc5)cc43)CC2)c1 [Example 92] please.
0.0724

Report concentration at 1 h for O=C(O)c1cc(F)cc(CN2CCC(n3c(C4CC4)nc4ccc(C(c5ccc(Cl)cc5)c5ccc(Cl)cc5)cc43)CC2)c1 [Example 89] please.
0.0926

Now for the compound whose concentration at 1 h we want.
Report concentration at 1 h for O=C(O)c1cccc(CN2CCC(n3c(C4CC4)nc4ccc(C(c5ccc(Cl)cc5)c5ccc(Cl)cc5)cc43)CC2)c1 [Example 148] please.
0.334

Reference for the values: patent US20190031618A1
